Test: yeast display, Sf9 membrane polyspecificity reagent, FACS + sequencing; frameworks hold sequencing errors
quantity_name: polyreactivity (PSR sort gate)

INSERT INTO assay_data (sequence_content, reported_measurement) VALUES
  ('QVQLVESGGGLVQAGGSLRLSCAASGNIFSYNAMGWYRQAPGKEREFVAAITFSSDRTYYADSVKGRFTISRDNAKNTVYLQMNSLKPEDTAVYYCAADTRYINYKRYYYWGQGTQVTVSS', 'high polyreactivity'),
  ('QVQLVESGGGLVQAGGSLRLSCAASGFIFSYYAMGWYRQAPGKERELVAAINYSGGRTYYADSVKGRFTISRDYAKNTVYLQMNSLKPEDTAVYYCNAVTFGRRAFDYWGQGTQVTVSS', 'high polyreactivity');

Every entry's value here was drawn from the nanobody polyreactivity screen of Harvey et al. (2022).
